biological target: Broad substrate specificity ATP-binding cassette transporter ABCG2 (Homo sapiens, UniProt Q9UNQ0); assay: Inhibition of human BCRP; type: ADME
Sequence (Q9UNQ0 whole entry): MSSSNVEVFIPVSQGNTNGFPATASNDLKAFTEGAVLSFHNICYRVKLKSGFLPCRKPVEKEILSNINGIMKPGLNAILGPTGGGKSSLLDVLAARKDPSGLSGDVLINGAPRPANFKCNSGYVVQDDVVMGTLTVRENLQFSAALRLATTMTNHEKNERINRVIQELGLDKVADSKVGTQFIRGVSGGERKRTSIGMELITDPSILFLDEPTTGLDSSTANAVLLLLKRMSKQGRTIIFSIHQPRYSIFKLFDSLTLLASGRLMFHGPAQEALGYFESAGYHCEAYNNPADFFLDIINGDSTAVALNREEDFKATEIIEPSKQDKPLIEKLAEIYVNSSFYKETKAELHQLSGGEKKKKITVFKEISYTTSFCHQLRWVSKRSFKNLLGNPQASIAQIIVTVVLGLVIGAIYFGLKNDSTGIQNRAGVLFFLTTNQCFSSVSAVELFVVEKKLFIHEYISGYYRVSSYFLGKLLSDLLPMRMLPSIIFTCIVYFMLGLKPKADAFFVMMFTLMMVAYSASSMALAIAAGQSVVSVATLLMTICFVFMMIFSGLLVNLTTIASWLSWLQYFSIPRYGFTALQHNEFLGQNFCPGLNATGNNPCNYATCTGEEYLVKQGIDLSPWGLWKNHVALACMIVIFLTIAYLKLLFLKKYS
experimental.readout: IC50 (µM)
Report only the number, with the unit µM understood.

Identify the reported IC50 for the following entry. C[C@@H]1CCO[C@H]2Cn3cc(C(=O)NCc4ccc(F)cc4F)c(=O)c(O)c3C(=O)N12 [DOLUTEGRAVIR]
67

---

target: BCRP (ABCG2) (Homo sapiens); assay: Activity at human BCRP expressed in MDCK2 cells assessed as apical to basolateral mass balance at 3 uM by liquid scintillation counting analysis in presence of 3 uM P-gp and BCRP inhibitor GF120918; format: ADME, cell-based, MDCK-II; details: with GF120918 (P-gp and BCRP inhibitor), read-out: Activity
experimental.readout: recovery at 3 µM (%)
Report only the number, with the unit % understood.

Identify the reported recovery at 3 µM for the following entry. C[C@@H]1CCO[C@H]2Cn3cc(C(=O)NCc4ccc(F)cc4F)c(=O)c(O)c3C(=O)N12 [DOLUTEGRAVIR]
81
